Reference for the values: ChEMBL document CHEMBL1155616

experiment: Cytotoxicity against mouse peritoneal macrophages; type: cell-based, Macrophage; details: read-out: MIC
Assign MCC to each entry below.

IN: Recorded MCC of COc1cc(OC)c2c(c1-c1ccc(O)c3c(OC)cc(C)cc13)C[C@H](C)N[C@H]2C [ANCISTROEALAINE B] , please.
OUT: > 30 µg/mL

IN: Entry COc1cc(OC)c(-c2ccc(OC)c3c(OC)cc(C)cc23)c2c1C(C)=N[C@@H](C)C2 [ANCISTROEALAINE A] please
OUT: > 30 µg/mL
